B1: CPEB3 Ribozyme (parent)
chain: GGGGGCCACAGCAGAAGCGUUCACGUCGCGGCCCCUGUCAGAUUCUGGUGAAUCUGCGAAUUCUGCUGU

Variants of: B1
Assay: self-cleavage, relative activity (ratio to wild type); higher = more cleavage; co-transcriptional
Okay, here is how we bin by self-cleavage: label 0: < 0.3; label 1: ≥ 0.3 and < 0.9; label 2: ≥ 0.9

>>> classification("U43C G50U")
"label 2"
>>> classification("U20G U46G")
"label 0"
>>> classification("U26C U53A")
"label 2"
>>> classification("A8U A59G")
"label 2"
>>> classification("U38C A51U")
"label 2"
>>> classification("G25U G68A")
"label 0"
>>> classification("C32G C45A")
"label 1"
>>> classification("C45U G50U")
"label 2"
>>> classification("A13G G48C")
"label 2"
>>> classification("C39A G41A")
"label 1"
>>> classification("C24G C54U")
"label 1"
>>> classification("C6U C24G")
"label 1"
>>> classification("U21G U38C")
"label 2"
>>> classification("C12G G19U")
"label 0"
>>> classification("G3A C45G")
"label 1"
>>> classification("U20G U62C")
"label 0"
>>> classification("G4U G56A")
"label 1"
>>> classification("G31U C35A")
"label 0"
>>> classification("U53G U67A")
"label 1"
>>> classification("C6G U38G")
"label 0"
>>> classification("G25U G41C")
"label 0"
>>> classification("G30U U69C")
"label 1"
>>> classification("C18A C66A")
"label 0"
>>> classification("G5U C22A")
"label 0"
>>> classification("C45A C66A")
"label 1"
>>> classification("C27G U69G")
"label 0"
>>> classification("C24U U53G")
"label 1"
>>> classification("G30U G47A")
"label 1"
>>> classification("A15C C22G")
"label 0"
>>> classification("G47U G56U")
"label 2"
>>> classification("C57A A60G")
"label 1"
>>> classification("G41C G58U")
"label 2"
>>> classification("U38G U53G")
"label 0"
>>> classification("A8U G50U")
"label 2"
>>> classification("A16G G56U")
"label 1"
>>> classification("C12U A60U")
"label 1"
